molecular target: human H3 receptor (Homo sapiens); construct: expressed in transfected cells; experiment: Cyclic AMP accumulation (β-galactosidase reporter, Schild analysis); type: cell-based; conditions: SK-N-MC cells expressing human H3 receptor and CRE-β-galactosidase reporter; histamine agonist, forskolin 5 μM; Schild regression of pEC50 values; read-out: pA2 (converted)
observable: log10 Kb (log10 of the value in nM)
Scale: decimal log of Kb, Kb in nM.

Consider the worked cases shown below.
molecule | log10 Kb
COc1cccc(C2CN(C)Cc3cc(OCCCN4CCC(F)CC4)ccc32)c1 (single isomer, unassigned) [Example 45A] | 0.10
COc1cccc(C2CN(C)Cc3cc(OCCCN4CCC(F)CC4)ccc32)c1 (single isomer, unassigned) [Example 45B] | -0.10
COc1ccc(C2CN(C)Cc3cc(OC[C@H]4CN(C(C)C)CCO4)ccc32)cc1 (single isomer, unassigned) [Example 256A] | 0.70
COc1ccc(C2CN(C)Cc3cc(OCCCN4CCCCC4)c(C)cc32)cc1 (stereo not shown) | 0.20
C(#Cc1ccc2c(c1)CNCC2c1cccnc1)CCN1CCCCC1 (stereo not shown) | -0.60

Which log10 Kb value is on record for CSc1ccc(C2CN(C)Cc3cc(OCC4CN(C(C)C)CCO4)ccc32)cc1 (mixture of isomers) ?
0.80

Which log10 Kb value is on record for CN1Cc2cc(OCCCN3CCCCC3)ccc2C(c2ccc(C(F)(F)F)cc2)C1 (stereo not shown) ?
0.40

Which log10 Kb value is on record for COc1ccc(C2CN(CCO)Cc3cc(OCCCN4CCCCC4)ccc32)cc1 (stereo not shown) ?
-0.60

Which log10 Kb value is on record for COc1ccc(C2CN(C3CC3)Cc3cc(OCCCN4CCCCC4)ccc32)cc1 (stereo not shown) ?
0.00

Which log10 Kb value is on record for COc1ccc(C2CN(C)Cc3cc(OC[C@H]4CN(C(C)C)CCO4)ccc32)cc1 (single isomer, unassigned) [Example 256B] ?
0.60

Which log10 Kb value is on record for CCN1Cc2cc(OCCCN3CCC(F)CC3)ccc2C(c2ccc(OC)cc2)C1 (stereo not shown) ?
0.30

Which log10 Kb value is on record for COc1ccc(C2CNCc3cc(OCCCN4CCCCC4)ccc32)cc1 (stereo not shown) ?
-0.10

Which log10 Kb value is on record for c1cncc(C2CNCc3cc(CCCCN4CCCCC4)ccc32)c1 (stereo not shown) ?
0.50

Which log10 Kb value is on record for COc1ccc(C2CN(C)Cc3cc(C#CCCN4CCCCC4)ccc32)cc1 (stereo not shown) ?
0.10

Which log10 Kb value is on record for COc1ccc(C2CN(C)Cc3cc(OC[C@@H]4CN(C5CC5)CCO4)ccc32)cc1 (single isomer, unassigned) [Example 260A] ?
0.00

Which log10 Kb value is on record for CSc1ccc(C2CN(C)Cc3cc(OCC4CN(C5CC5)C4)ccc32)cc1 (stereo not shown) ?
1.20

* * *

target: Rat SERT (Rattus norvegicus, UniProt P31652); construct: A rat brain without cerebellum (Zivic Laboratories, Inc.—Pittsburgh, Pa.) was homogenized; tissue Zivic Laboratories, Inc; host or cells: rat brain without cerebellum, membranes; test: Rat brain SERT binding ([3H]-citalopram displacement); conditions: rat brain membranes without cerebellum, 0.6 nM [3H]-citalopram, 60 min at 25° C.; read-out: Rat SERT Ki
Sequence (P31652 whole entry): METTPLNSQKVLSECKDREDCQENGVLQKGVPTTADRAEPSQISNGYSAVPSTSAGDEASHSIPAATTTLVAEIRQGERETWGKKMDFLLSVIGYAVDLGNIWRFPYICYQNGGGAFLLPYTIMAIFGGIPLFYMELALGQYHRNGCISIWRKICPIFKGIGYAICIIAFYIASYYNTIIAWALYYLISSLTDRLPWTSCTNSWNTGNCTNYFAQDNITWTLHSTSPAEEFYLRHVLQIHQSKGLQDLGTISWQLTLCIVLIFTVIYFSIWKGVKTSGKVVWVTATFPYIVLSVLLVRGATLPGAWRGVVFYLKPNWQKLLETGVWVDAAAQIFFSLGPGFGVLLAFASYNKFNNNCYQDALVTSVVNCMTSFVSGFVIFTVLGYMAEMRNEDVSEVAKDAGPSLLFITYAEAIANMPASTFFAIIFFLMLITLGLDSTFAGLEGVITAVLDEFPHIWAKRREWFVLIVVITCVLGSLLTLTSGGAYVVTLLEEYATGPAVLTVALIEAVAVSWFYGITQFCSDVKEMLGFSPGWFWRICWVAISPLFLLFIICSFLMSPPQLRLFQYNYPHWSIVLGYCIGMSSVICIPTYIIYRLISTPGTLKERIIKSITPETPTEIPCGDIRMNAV
# pKi listing for each entry below
Give only the number. pKi is defined as minus log10 of concentration in molar units.

molecule | observable | assay_value
COc1ccc(C2CN(C)Cc3cc(C#CCCN4CCOCC4)ccc32)cc1 (centres unmarked) | pKi | 7.74

Which pKi value is on record for CCN1CCOC(COc2ccc3c(c2)CN(C)CC3c2ccc(OC)cc2)C1 (mixture of isomers) ?
8.10

Which pKi value is on record for CSc1ccc(C2CN(C)Cc3cc(OCCCN4CCOCC4)c(C)cc32)cc1 (centres unmarked) ?
7.74

Which pKi value is on record for COc1ccc(C2CN(C(C)(C)C)Cc3cc(OCCCN4CCCCC4)ccc32)cc1 (centres unmarked) ?
6.65

Which pKi value is on record for COc1ccc(C2CN(C)Cc3cc(OCC4CCN(C5CC5)CC4)ccc32)cc1 (centres unmarked) ?
8.22

Which pKi value is on record for CSc1ccc(C2CN(C)Cc3cc(OC4CCN(C5CCOCC5)CC4)ccc32)cc1 (centres unmarked) ?
8.00

Which pKi value is on record for CN1Cc2cc(OCCCN3CCC(F)CC3)ccc2C(c2ccc(Sc3ncccn3)nc2)C1 (centres unmarked) ?
5.70

Which pKi value is on record for CSc1ccc(C2CN(C)Cc3cc(OCC4CCN(C(C)C)CC4)ccc32)cc1 (centres unmarked) ?
8.10

* * *

# Ki listing for each entry below
target: human H3 receptor (Homo sapiens, UniProt Q9Y5N1); construct: expressed in transfected cells; assay: H3 receptor binding (N-[3H]-α-methylhistamine displacement); settings: membranes of SK-N-MC cells expressing cloned human H3 receptor, 0.8 nM N-[3H]-α-methylhistamine, 60 min at 25° C.
Sequence (Q9Y5N1 whole entry): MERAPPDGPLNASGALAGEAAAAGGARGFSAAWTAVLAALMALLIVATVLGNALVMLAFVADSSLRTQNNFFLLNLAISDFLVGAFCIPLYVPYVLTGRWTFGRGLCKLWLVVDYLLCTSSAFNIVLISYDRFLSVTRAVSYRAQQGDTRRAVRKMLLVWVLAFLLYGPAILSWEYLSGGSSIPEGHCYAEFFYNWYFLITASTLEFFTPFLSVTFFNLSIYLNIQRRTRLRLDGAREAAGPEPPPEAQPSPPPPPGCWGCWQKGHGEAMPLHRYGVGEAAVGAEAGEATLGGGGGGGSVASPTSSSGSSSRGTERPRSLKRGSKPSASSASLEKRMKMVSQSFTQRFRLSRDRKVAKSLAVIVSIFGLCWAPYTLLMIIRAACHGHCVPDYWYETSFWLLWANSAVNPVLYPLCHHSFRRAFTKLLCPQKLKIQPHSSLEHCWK
The reply should consist of the numeric value with the unit placed after it.

Consider the worked cases shown below.
compound | assay_value
COc1ccc(C2CN(C)Cc3cc(OC4CCNCC4)ccc32)cc1 (centres unmarked) | 262 nM
CCCN1CCC(COc2ccc3c(c2)CN(C)CC3c2ccc(SC)cc2)CC1 (centres unmarked) | 8 nM
COc1ccc(C2CN(C(C)C)Cc3cc(OCCCN4CCCCC4)ccc32)cc1 (centres unmarked) | 1 nM

Which Ki value is on record for COc1ccc(C2CN(C)Cc3cc(OCCCN4CCC(CO)CC4)ccc32)cc1 (centres unmarked) ?
11 nM

Which Ki value is on record for COc1ccc(C2CN(C)Cc3cc(OC[C@@H]4CN(C5CC5)CCO4)ccc32)cc1 (single isomer, unassigned) [Example 260B] ?
29 nM

Which Ki value is on record for CN1Cc2cc(OCCCN3CCC(F)CC3)ccc2C(c2cccc(F)c2)C1 (centres unmarked) ?
6 nM

Which Ki value is on record for CN1Cc2cc(OCCCN3CCC(F)CC3)ccc2C(c2cccc(Cl)c2)C1 (centres unmarked) ?
3 nM

Which Ki value is on record for C(#Cc1ccc2c(c1)CNCC2c1cccnc1)CCN1CCCCC1 (centres unmarked) ?
0.7 nM

* * *

target: Rat SERT (Rattus norvegicus); construct: A rat brain without cerebellum (Zivic Laboratories, Inc.—Pittsburgh, Pa.) was homogenized; tissue Zivic Laboratories, Inc; host or cells: rat brain without cerebellum, membranes; assay: Rat brain SERT binding ([3H]-citalopram displacement); conditions: rat brain membranes without cerebellum, 0.6 nM [3H]-citalopram, 60 min at 25° C.; read-out: Rat SERT Ki
observable: Ki (nM)
Quick note: give the figure in nM, leave out the unit.

compound | observable | assay_value
COc1ccc(C2CN(C)Cc3cc(OCC4CCN(C5CCC5)CC4)ccc32)cc1 (stereo not shown) | Ki | 7
COc1ccc(C2CN(C)Cc3cc(OCCCN4CCN(c5ccncc5)CC4)ccc32)cc1 (stereo not shown) | Ki | 10
COc1ccc(C2CN(C)Cc3cc(OCCC4CCCN4C)ccc32)cc1 (single isomer, unassigned) [Example 240B] | Ki | 5

Next up:
Which Ki value is on record for CN1Cc2cc(OCCCN3CCC(F)CC3)ccc2C(c2ccc(-n3cccn3)nc2)C1 (stereo not shown) ?
7

* * *

Quick note: these are pKi numbers for system: UniProt Q9Y5N1
Give only the number. pKi is defined as minus log10 of concentration in molar units.

Consider the worked cases shown below.
compound | pKi
COc1ccc(C2CN(C)Cc3cc(OCCCN4CCOCC4)c(C)cc32)cc1 (stereo not shown) | 7.85
COc1ccc(C2CN(C)Cc3cc(OCCCN4CCN(C(=O)c5ccncc5)CC4)ccc32)cc1 (stereo not shown) | 5.40

Any idea what pKi came out for COc1cccc(C2CN(C)Cc3cc(OCCCN4CCC(F)CC4)ccc32)c1 (single isomer, unassigned) [Example 45A] on UniProt Q9Y5N1?
8.70

* * *

biological target: Rat SERT (Rattus norvegicus, UniProt P31652); construct: A rat brain without cerebellum (Zivic Laboratories, Inc.—Pittsburgh, Pa.) was homogenized; tissue Zivic Laboratories, Inc; host or cells: rat brain without cerebellum, membranes; assay: Rat brain SERT binding ([3H]-citalopram displacement); conditions: rat brain membranes without cerebellum, 0.6 nM [3H]-citalopram, 60 min at 25° C.; read-out: Rat SERT Ki
observable: Ki

Consider the worked cases shown below.
molecule | Ki
COc1cccc(C2CN(C)Cc3cc(OCCCN4CCC(F)CC4)ccc32)c1 (single isomer, unassigned) [Example 45A] | 9 nM
CCOC(=O)N1CCN(CCCOc2ccc3c(c2)CN(C)CC3c2ccc(OC)cc2)CC1 (stereo not shown) [Example 12] | 6 nM
COc1ccc(C2CN(C)Cc3cc(OCCCN4CCN(C(=O)c5ccncc5)CC4)ccc32)cc1 (stereo not shown) [Example 4] | 33 nM
COc1ccc(C2CN(C)Cc3cc(OCCCN4CCOC[C@@H]4C)ccc32)cc1F (stereo partly shown) [Example 221] | 11 nM
COc1ccc(C2CN(C)Cc3cc(OCC4CCN(CC(F)(F)F)CC4)ccc32)cc1 (stereo not shown) [Example 123] | 18 nM
COc1ccc(C2CN(C)Cc3cc(OCC4CCNCC4)ccc32)cc1F (stereo not shown) [Example 81] | 1 nM
COc1ccc(C2CN(C(C)c3ccccc3)Cc3cc(OCCCN4CCOCC4)ccc32)cc1 (single isomer, unassigned) [Example 75A] | 2000 nM
COc1ccc(C2CN(C)Cc3cc(OCCCN4CCC(F)CC4)ccc32)cc1 (single isomer, unassigned) [Example 1A] | 6 nM
COc1cccc(C2CN(C)Cc3cc(OCC4CCN(C(C)C)CC4)ccc32)c1 (stereo not shown) [Example 91] | 11 nM
CSc1ccc(C2CN(C)Cc3cc(OC4CCN(CCC(F)(F)F)CC4)ccc32)cc1 (stereo not shown) [Example 244] | 7 nM

Which Ki value is on record for CSc1ccc(C2CN(C)Cc3cc(OC4CCN(C(C)C)CC4)ccc32)cc1 (stereo not shown) [Example 118] ?
8 nM

Which Ki value is on record for CCN(CC)CCCOc1ccc2c(c1)CN(C)CC2c1ccc(OC)cc1 (stereo not shown) [Example 3] ?
3 nM

Which Ki value is on record for COc1ccc(C2CN(C)Cc3cc(OC[C@H]4CN(C(C)C)CCO4)ccc32)cc1 (single isomer, unassigned) [Example 256A] ?
12 nM

Which Ki value is on record for COc1ccc(C2CN(Cc3ccccc3)Cc3cc(OCCCN4CCCCC4)ccc32)cc1 (stereo not shown) [Example 65] ?
3000 nM

Which Ki value is on record for COc1ccc(C2CN(C)Cc3cc(OCC4CCN(C(C)C)CC4)ccc32)cc1Cl (stereo not shown) [Example 88] ?
15 nM

Which Ki value is on record for COc1ccc(C2CN(C)Cc3cc(OC4CCNCC4)ccc32)cc1F (stereo not shown) [Example 151] ?
3 nM
